test.system: T1, APJ receptor (human, UniProt P35414 1-380)
T1 sequence (looked up): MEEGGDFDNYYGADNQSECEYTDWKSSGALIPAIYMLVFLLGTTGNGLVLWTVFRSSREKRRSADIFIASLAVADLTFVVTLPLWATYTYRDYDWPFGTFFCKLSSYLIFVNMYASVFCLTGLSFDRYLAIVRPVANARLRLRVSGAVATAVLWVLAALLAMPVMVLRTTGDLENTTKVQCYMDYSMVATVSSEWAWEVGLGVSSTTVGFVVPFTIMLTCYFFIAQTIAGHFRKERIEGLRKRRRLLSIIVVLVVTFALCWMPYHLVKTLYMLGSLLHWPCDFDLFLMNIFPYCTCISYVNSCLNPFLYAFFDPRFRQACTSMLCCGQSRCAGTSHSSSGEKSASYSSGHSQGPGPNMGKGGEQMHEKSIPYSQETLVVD
experiment.description: cell-based or functional assay
[ ]: non-standard residue; d: D form. pGlu = O=C1CC[C@@H](C(=O)O)N1; dNle = CCCC[C@@H](N)C(=O)O
Below, each entry is listed alongside its reported hAPJ Ca^2+ Flux EC50.

[pGlu]RPRLS[dF]KGP[dNle][dA][dF]-OH (SMILES CCCC[C@@H](NC(=O)[C@@H]1CCCN1C(=O)CNC(=O)[C@H](CCCCN)NC(=O)[C@@H](Cc1ccccc1)NC(=O)[C@H](CO)NC(=O)[C@H](CC(C)C)NC(=O)[C@H](CCCNC(=N)N)NC(=O)[C@@H]1CCCN1C(=O)[C@H](CCCNC(=N)N)NC(=O)[C@@H]1CCC(=O)N1)C(=O)N[C@H](C)C(=O)N[C@H](Cc1ccccc1)C(=O)O) [pE-R-P-R-L-S-f-K-G-P-nle-a-f-OH] = 72.8 nM

Can you look up the measured hAPJ Ca^2+ Flux EC50 of [pGlu]RPRL[dA]HQGP[dNle][dA][dF]-OH (SMILES CCCC[C@@H](NC(=O)[C@@H]1CCCN1C(=O)CNC(=O)[C@H](CCC(N)=O)NC(=O)[C@H](Cc1c[nH]cn1)NC(=O)[C@@H](C)NC(=O)[C@H](CC(C)C)NC(=O)[C@H](CCCNC(=N)N)NC(=O)[C@@H]1CCCN1C(=O)[C@H](CCCNC(=N)N)NC(=O)[C@@H]1CCC(=O)N1)C(=O)N[C@H](C)C(=O)N[C@H](Cc1ccccc1)C(=O)O) [pE-R-P-R-L-a-H-Q-G-P-nle-a-f-OH] for me?
7.4 nM
